# studyTarget: T1, Cynomolgus Serum Albumin (cynomolgus monkey, UniProt A2V9Z4 25-608)
# T1 construct: ELISA: albumin coated on plates; pull-down: endogenous albumin in cynomolgus serum; also called cSA; Cyno SA
# T1 sequence (A2V9Z4 25-608 limits assumed): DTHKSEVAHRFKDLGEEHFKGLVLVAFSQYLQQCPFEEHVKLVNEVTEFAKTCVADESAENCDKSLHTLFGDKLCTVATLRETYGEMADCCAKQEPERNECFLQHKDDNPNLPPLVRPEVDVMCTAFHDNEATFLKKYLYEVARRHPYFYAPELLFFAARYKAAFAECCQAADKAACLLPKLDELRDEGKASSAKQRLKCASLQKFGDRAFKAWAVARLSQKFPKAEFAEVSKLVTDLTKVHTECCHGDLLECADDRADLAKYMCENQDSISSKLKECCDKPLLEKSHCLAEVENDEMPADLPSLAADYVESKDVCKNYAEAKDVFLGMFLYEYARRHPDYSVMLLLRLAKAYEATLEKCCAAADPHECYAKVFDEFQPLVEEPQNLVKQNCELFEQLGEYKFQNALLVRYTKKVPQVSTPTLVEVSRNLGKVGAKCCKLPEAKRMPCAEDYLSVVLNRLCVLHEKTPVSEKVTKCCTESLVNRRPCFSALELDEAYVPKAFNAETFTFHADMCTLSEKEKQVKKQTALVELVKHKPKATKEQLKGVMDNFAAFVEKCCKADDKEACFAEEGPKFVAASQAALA
# protocolText: pull-down of endogenous albumin from cynomolgus serum
property: binding result

INSERT INTO assay_data (binder, property, resultvalue) VALUES
  ('A10V, H73A (designed binder, Variant of B7; not shown: His tag: FN3 domains were purified as His-tagged proteins) MLPAPKNLVVSRVTEDSARLSWTAPDAAFDSFNIAYWEPGIGGEAIWLRVPGSERSYDLTGLKPGTEYKVWIAGVKGGASSPPLIARFTT', 'binding result', 'no binding'),
  ('A10V, I85A (designed binder, Variant of B7; not shown: His tag: FN3 domains were purified as His-tagged proteins) MLPAPKNLVVSRVTEDSARLSWTAPDAAFDSFNIAYWEPGIGGEAIWLRVPGSERSYDLTGLKPGTEYKVWIHGVKGGASSPPLAARFTT', 'binding result', 'no binding');

This collection of values is drawn from patent US20230039851A1.
